Measured IC50 by item
test system: MDA-MB-231 breast cancer cells; test: Anti-proliferative assay (cell-titre luminescent), MDA-MB-231; assay type: cell-based; details: Homo sapiens; MDA-MB-231, 72 hours, luminescence
I only need the number, in µM, no unit after it.

// known answers, use as guide
input: Which measured IC50 value corresponds to COc1ccc2c(c1)c(/C=C/C(=O)N1CCN(CCc3ccccc3)CC1)c(C)n2CCCN(C)C ?
output: 30

input: Which measured IC50 value corresponds to CCOc1ccc2c(c1)c(/C=C/C(=O)N1CCN(CCc3ccc(F)cc3)CC1)c(C)n2CCCN(CC)CC ?
output: 4.4

input: Which measured IC50 value corresponds to COc1ccc2c(c1)c(/C=C/C(=O)N1CCN(CCc3ccc(F)cc3)CC1)c(C)n2CCCN1CCN(C)CC1 ?
output: 3.3

input: Which measured IC50 value corresponds to CCN(CC)CCCn1c(C)c(C(=O)N2CCN(CCc3ccc(F)cc3)CC2)c2cc(OC)ccc21 ?
output: 14

input: Which measured IC50 value corresponds to COc1ccc(CCN2CCN(C(=O)c3c(C)n(CCCN(C)C)c4ccccc34)CC2)cc1 ?
output: 16.6

Please find the next compound below.
input: Which measured IC50 value corresponds to CCN(CC)CCCn1c(C)c(/C=C/C(=O)N2CCN(CCc3ccccc3)CC2)c2cc(OC)ccc21 ?
output: 5.2

====

test system: PC3 prostate cancer cells; experiment: Anti-proliferative assay (cell-titre luminescent), PC3; assay type: cell-based; conditions: PC3, 72 hours, luminescence
Param label: returns fulfilled when IC50 < 7 µM, returns not fulfilled otherwise, including exact equality.

input: Decide: IC50 of COc1ccc2c(c1)c(C(=O)N1CCN(CCc3ccc4c(c3)OCO4)CC1)c(C)n2CCCN1CCN(C)CC1 strictly below 7 µM?
output: not fulfilled

input: Decide: IC50 of CCN(CC)CCCn1c(C)c(C(=O)N2CCN(CCc3ccc(F)cc3)CC2)c2cc(OC)ccc21 strictly below 7 µM?
output: not fulfilled

input: Decide: IC50 of COc1cccc(CCN2CCN(C(=O)c3c(C)n(CCCN(C)C)c4ccccc34)CC2)c1 strictly below 7 µM?
output: not fulfilled

input: Decide: IC50 of COc1ccc2c(c1)c(C(=O)N1CCN(CCc3ccccc3)CC1)c(C)n2CCCN1CCN(C)CC1 strictly below 7 µM?
output: not fulfilled

input: Decide: IC50 of CCOc1ccc2c(c1)c(C(=O)N1CCN(CCc3ccc(F)cc3)CC1)c(C)n2CCCN(C)C strictly below 7 µM?
output: not fulfilled

input: Decide: IC50 of COc1ccc(CCN2CCN(C(=O)/C=C/c3c(C)n(CCCN(C)C)c4ccccc34)CC2)cc1 strictly below 7 µM?
output: fulfilled

====

Measured IC50 by item
Test system: PC3 prostate cancer cells
Experiment: Anti-proliferative assay (cell-titre luminescent), PC3
Type: cell-based
Conditions: PC3, 72 hours, luminescence
Procedure: The ability of compounds 2002, 2009 and 2013-2064 to inhibit the proliferation of cancer cells representative of neuroblastoma, melanoma, prostate cancer, colorectal cancer, non-small cell lung carcinoma, and triple negative breast cancer was assessed. These studies were conducted by contract research (GVK-BIO). […] Luminescence was captured using an EnVision multilabel reader and the data for each analogue concentration compared against no treatment control. […]
I only need the number, in µM, no unit after it.

// known answers, use as guide
input: Which measured IC50 value corresponds to CCN(CC)CCCn1c(C)c(/C=C/C(=O)N2CCN(CCc3ccc4c(c3)OCO4)CC2)c2cc(OC)ccc21 ?
output: 7.6

input: Which measured IC50 value corresponds to CCOc1ccc2c(c1)c(C(=O)N1CCN(CCc3ccc(F)cc3)CC1)c(C)n2CCCN(CC)CC ?
output: 7.2

input: Which measured IC50 value corresponds to Cc1c(/C=C/C(=O)N2CCN(CCc3ccc4c(c3)OCO4)CC2)c2ccccc2n1CCCN(C)C ?
output: 6.5

Please find the next compound below.
input: Which measured IC50 value corresponds to COc1cccc(CCN2CCN(C(=O)/C=C/c3c(C)n(CCCN(C)C)c4ccc(OC)cc34)CC2)c1 ?
output: 7.6

====

tested on: MDA-MB-231 breast cancer cells; test: Anti-proliferative assay (cell-titre luminescent), MDA-MB-231; type: cell-based; conditions: Homo sapiens; MDA-MB-231, 72 hours, luminescence
Measured IC50 by item
I only need the number, in µM, no unit after it.

// known answers, use as guide
input: Which measured IC50 value corresponds to COc1ccc2c(c1)c(C(=O)N1CCN(CCc3cccc(F)c3)CC1)c(C)n2CCCN(C)C ?
output: 12

input: Which measured IC50 value corresponds to CCN(CC)CCCn1c(C)c(/C=C/C(=O)N2CCN(CCc3ccc(OC)cc3)CC2)c2cc(OC)ccc21 ?
output: 4.1

input: Which measured IC50 value corresponds to COc1cccc(CCN2CCN(C(=O)/C=C/c3c(C)n(CCCN(C)C)c4ccccc34)CC2)c1 ?
output: 10.8

input: Which measured IC50 value corresponds to COc1ccc2c(c1)c(C(=O)N1CCN(CCc3ccc(F)cc3)CC1)c(C)n2CCCN(C)C ?
output: 20.4

input: Which measured IC50 value corresponds to COc1ccc2c(c1)c(C(=O)N1CCN(CCc3ccc(F)cc3)CC1)c(C)n2CCCN1CCN(C)CC1 ?
output: 13.9

input: Which measured IC50 value corresponds to COc1cccc(CCN2CCN(C(=O)c3c(C)n(CCCN4CCN(C)CC4)c4ccc(OC)cc34)CC2)c1 ?
output: 6.1

input: Which measured IC50 value corresponds to COc1cccc(CCN2CCN(C(=O)/C=C/c3c(C)n(CCCN4CCN(C)CC4)c4ccc(OC)cc34)CC2)c1 ?
output: 4.5

input: Which measured IC50 value corresponds to CCN(CC)CCCn1c(C)c(C(=O)N2CCN(CCc3cccc(F)c3)CC2)c2cc(OC)ccc21 ?
output: 12.6

Others:
input: Which measured IC50 value corresponds to COc1ccc2c(c1)c(C(=O)N1CCN(CCc3ccc4c(c3)OCO4)CC1)c(C)n2CCCN(C)C ?
output: 11.3

input: Which measured IC50 value corresponds to CCN(CC)CCCn1c(C)c(C(=O)N2CCN(CCc3ccc(OC)cc3)CC2)c2cc(OC)ccc21 ?
output: 10.3

input: Which measured IC50 value corresponds to COc1ccc(CCN2CCN(C(=O)/C=C/c3c(C)n(CCCN(C)C)c4ccccc34)CC2)cc1 ?
output: 6.8

====

Measured IC50 by item
tested on: MDA-MB-231 breast cancer cells; experiment: Anti-proliferative assay (cell-titre luminescent), MDA-MB-231; format: cell-based; conditions: Homo sapiens; MDA-MB-231, 72 hours, luminescence
I only need the number, in µM, no unit after it.

// known answers, use as guide
input: Write down the reported IC50 of COc1ccc(CCN2CCN(C(=O)c3c(C)n(CCCN4CCN(C)CC4)c4ccc(OC)cc34)CC2)cc1 , test system: MDA-MB-231 breast cancer cells.
output: 7.5

input: Write down the reported IC50 of CCOc1ccc2c(c1)c(C(=O)N1CCN(CCc3ccc(F)cc3)CC1)c(C)n2CCCN(CC)CC , test system: MDA-MB-231 breast cancer cells.
output: 3

input: Write down the reported IC50 of CCN(CC)CCCn1c(C)c(C(=O)N2CCN(CCc3ccc4c(c3)OCO4)CC2)c2cc(OC)ccc21 , test system: MDA-MB-231 breast cancer cells.
output: 12.7

input: Write down the reported IC50 of COc1ccc2c(c1)c(/C=C/C(=O)N1CCN(CCc3cccc(F)c3)CC1)c(C)n2CCCN1CCN(C)CC1 , test system: MDA-MB-231 breast cancer cells.
output: 4.9

input: Write down the reported IC50 of COc1ccc2c(c1)c(/C=C/C(=O)N1CCN(CCc3ccc(F)cc3)CC1)c(C)n2CCCN(C)C , test system: MDA-MB-231 breast cancer cells.
output: 5.7

input: Write down the reported IC50 of COc1cccc(CCN2CCN(C(=O)/C=C/c3c(C)n(CCCN(C)C)c4ccc(OC)cc34)CC2)c1 , test system: MDA-MB-231 breast cancer cells.
output: 11.3

input: Write down the reported IC50 of CCN(CC)CCCn1c(C)c(/C=C/C(=O)N2CCN(CCc3ccc4c(c3)OCO4)CC2)c2cc(OC)ccc21 , test system: MDA-MB-231 breast cancer cells.
output: 30

input: Write down the reported IC50 of COc1ccc2c(c1)c(C(=O)N1CCN(CCc3cccc(F)c3)CC1)c(C)n2CCCN1CCN(C)CC1 , test system: MDA-MB-231 breast cancer cells.
output: 7

input: Write down the reported IC50 of COc1ccc2c(c1)c(/C=C/C(=O)N1CCN(CCc3cccc(F)c3)CC1)c(C)n2CCCN(C)C , test system: MDA-MB-231 breast cancer cells.
output: 4.8

input: Write down the reported IC50 of CCN(CC)CCCn1c(C)c(C(=O)N2CCN(CCc3cccc(OC)c3)CC2)c2cc(OC)ccc21 , test system: MDA-MB-231 breast cancer cells.
output: 11.8

Others:
input: Write down the reported IC50 of COc1ccc2c(c1)c(C(=O)N1CCN(CCc3ccc4c(c3)OCO4)CC1)c(C)n2CCCN1CCN(C)CC1 , test system: MDA-MB-231 breast cancer cells.
output: 29.8

input: Write down the reported IC50 of COc1ccc(CCN2CCN(C(=O)/C=C/c3c(C)n(CCCN4CCN(C)CC4)c4ccc(OC)cc34)CC2)cc1 , test system: MDA-MB-231 breast cancer cells.
output: 4.3

input: Write down the reported IC50 of CCN(CC)CCCn1c(C)c(/C=C/C(=O)N2CCN(CCc3ccc(F)cc3)CC2)c2cc(OC)ccc21 , test system: MDA-MB-231 breast cancer cells.
output: 4.6
